Tested on: Hs578T complex spheroid growth, percent test/control
experiment: Anticancer human tumor Hs578T cell line growth inhibition [AhR]
test-context: second compound 0.316 µM; first compound 0.03 µM; stronger effect = lower value
Description: Multicellular complex tumor spheroid response to aryl hydrocarbon receptor antagonists in combination with a variety of drugs and investigational agents in selected tumor cell lines […] Compounds. […] If the clinical Cmax for an agent had not been determined, the highest concentration tested was 10 microM (Table 1). […]
value-kind: viability, T/C (%)
Quick reminder: number only, in %, skip the unit.

Here is how some compounds turned out for viability, T/C.
compound	assay-value
CC(C)CC(NC(=O)C(Cc1ccccc1)NC(=O)c1cnccn1)B(O)O (stereo not drawn) + Cc1cncc(-c2nc(NCCc3c[nH]c4ccccc34)c3ncn(C(C)C)c3n2)c1	0.39
CC(C)CC(NC(=O)C(Cc1ccccc1)NC(=O)c1cnccn1)B(O)O (stereo not drawn) + CC(CO)NC(=O)c1cc(-c2ccc(Cl)cc2)nn(-c2cnn(C)c2)c1=O	0.48

Alright, here's another compound for you.
// query Kindly indicate its recorded viability, T/C. Item: CCc1c2c(nc3ccc(O)cc13)-c1cc3c(c(=O)n1C2)COC(=O)[C@]3(O)CC + CC(CO)NC(=O)c1cc(-c2ccc(Cl)cc2)nn(-c2cnn(C)c2)c1=O
// result 66.3

* * *

Test system: Hs578T complex spheroid growth, percent test/control
experiment: Anticancer human tumor Hs578T cell line growth inhibition [AhR]; active = viability on the fitted dose curve at most 10% of control; inactive = the rest;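 note: luminescent viability signal as a proxy for spheroid growth; spheroids exposed to agents for one week after three days of growth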
test-context: second compound 0.316 µM; first compound 10 µM
Lab note: assign the record to one of active, inactive

compound	group-label
CC1COCCN1c1cc(C2(S(C)(=N)=O)CC2)nc(-c2ccnc3[nH]ccc23)n1 (stereo unspecified) + Cc1cncc(-c2nc(NCCc3c[nH]c4ccccc34)c3ncn(C(C)C)c3n2)c1	inactive
COc1cc(C2c3cc4c(cc3C(OC3OC5COC(C)OC5C(O)C3O)C3COC(=O)C23)OCO4)cc(OC)c1O (stereo unspecified) + Cc1ccccc1N=Nc1ccc(NC(=O)c2ccnn2C)c(C)c1	inactive
O=C(C=Cc1cccc(S(=O)(=O)Nc2ccccc2)c1)NO + Cc1cncc(-c2nc(NCCc3c[nH]c4ccccc34)c3ncn(C(C)C)c3n2)c1	active

// query What outcome does the record of this test show for Nc1ccn(C2OC(CO)C(O)C2(F)F)c(=O)n1 (stereo unspecified) + Cc1cncc(-c2nc(NCCc3c[nH]c4ccccc34)c3ncn(C(C)C)c3n2)c1 ?
// result inactive

// query What outcome does the record of this test show for COc1ccc([C@@H](O)c2cc(-c3ncnc4cc(N5CCOCC5)ccc34)c(F)cc2Cl)nn1 + Cc1cncc(-c2nc(NCCc3c[nH]c4ccccc34)c3ncn(C(C)C)c3n2)c1 ?
// result inactive

// query What outcome does the record of this test show for COc1cc(C2c3cc4c(cc3C(OC3OC5COC(C)OC5C(O)C3O)C3COC(=O)C23)OCO4)cc(OC)c1O (stereo unspecified) + Cc1cncc(-c2nc(NCCc3c[nH]c4ccccc34)c3ncn(C(C)C)c3n2)c1 ?
// result inactive

* * *

Tested on: Hs578T complex spheroid growth, percent test/control
experiment: Anticancer human tumor Hs578T cell line growth inhibition [AhR]; active = viability on the fitted dose curve at most 10% of control; inactive = the rest;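 note: luminescent viability signal as a proxy for spheroid growth; spheroids exposed to agents for one week after three days of growth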
test-context: second compound 1 µM; first compound 10 µM
Lab note: assign the record to one of active, inactive

Answered examples (3):
compound	tested-on	group-label
O=C(C=Cc1cccc(S(=O)(=O)Nc2ccccc2)c1)NO + CC(CO)NC(=O)c1cc(-c2ccc(Cl)cc2)nn(-c2cnn(C)c2)c1=O	Hs578T complex spheroid growth, percent test/control	active
Nc1ccccc1NC(=O)c1ccc(CNC(=O)OCc2cccnc2)cc1 + Cc1ccccc1N=Nc1ccc(NC(=O)c2ccnn2C)c(C)c1	Hs578T complex spheroid growth, percent test/control	active
COc1ccc([C@@H](O)c2cc(-c3ncnc4cc(N5CCOCC5)ccc34)c(F)cc2Cl)nn1 + Cc1cncc(-c2nc(NCCc3c[nH]c4ccccc34)c3ncn(C(C)C)c3n2)c1	Hs578T complex spheroid growth, percent test/control	inactive

// query What outcome does the record of this test show for CC1(C)CCC(CN2CCN(c3ccc(C(=O)NS(=O)(=O)c4ccc(NCC5CCOCC5)c([N+](=O)[O-])c4)c(Oc4cnc5[nH]ccc5c4)c3)CC2)=C(c2ccc(Cl)cc2)C1 + CC(CO)NC(=O)c1cc(-c2ccc(Cl)cc2)nn(-c2cnn(C)c2)c1=O ?
// result inactive

// query What outcome does the record of this test show for CC(C)c1c(-c2ccccc2)nc2c(C#N)c[nH]n2c1=O + CC(CO)NC(=O)c1cc(-c2ccc(Cl)cc2)nn(-c2cnn(C)c2)c1=O ?
// result inactive

// query What outcome does the record of this test show for NS(=O)(=O)OCC1CC(n2ccc3c(NC4CCc5ccccc54)ncnc32)CC1O (stereo not drawn) + Cc1cncc(-c2nc(NCCc3c[nH]c4ccccc34)c3ncn(C(C)C)c3n2)c1 ?
// result inactive

// query What outcome does the record of this test show for Nc1ccn(C2OC(CO)C(O)C2(F)F)c(=O)n1 (stereo not drawn) + Cc1cncc(-c2nc(NCCc3c[nH]c4ccccc34)c3ncn(C(C)C)c3n2)c1 ?
// result inactive

* * *

Tested on: Hs578T complex spheroid growth, percent test/control
experiment: Anticancer human tumor Hs578T cell line growth inhibition [AhR]; active means viability on the fitted dose curve at most 10% of control; inactive means the rest;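 note: luminescent viability signal as a proxy for spheroid growth; spheroids exposed to agents for one week after three days of growth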
test-context: second compound 3.16 µM; first compound 10 µM
Excerpt: Multicellular complex tumor spheroid response to aryl hydrocarbon receptor antagonists in combination with a variety of drugs and investigational agents in selected tumor cell lines […] Compounds. […] If the clinical Cmax for an agent had not been determined, the highest concentration tested was 10 microM (Table 1). […]
Lab note: assign the record to one of class 1 for active, class 0 for inactive

Answered examples (6):
compound	group-label
CC(C)c1c(-c2ccccc2)nc2c(C#N)c[nH]n2c1=O + CC(CO)NC(=O)c1cc(-c2ccc(Cl)cc2)nn(-c2cnn(C)c2)c1=O	class 0
O=C(C=Cc1cccc(S(=O)(=O)Nc2ccccc2)c1)NO + Cc1cncc(-c2nc(NCCc3c[nH]c4ccccc34)c3ncn(C(C)C)c3n2)c1	class 1
Nc1ccn(C2OC(CO)C(O)C2(F)F)c(=O)n1 (stereo not drawn) + Cc1cncc(-c2nc(NCCc3c[nH]c4ccccc34)c3ncn(C(C)C)c3n2)c1	class 0
COc1cc(C2c3cc4c(cc3C(OC3OC5COC(C)OC5C(O)C3O)C3COC(=O)C23)OCO4)cc(OC)c1O (stereo not drawn) + Cc1ccccc1N=Nc1ccc(NC(=O)c2ccnn2C)c(C)c1	class 0
NS(=O)(=O)OCC1CC(n2ccc3c(NC4CCc5ccccc54)ncnc32)CC1O (stereo not drawn) + CC(CO)NC(=O)c1cc(-c2ccc(Cl)cc2)nn(-c2cnn(C)c2)c1=O	class 0
CC1COCCN1c1cc(C2(S(C)(=N)=O)CC2)nc(-c2ccnc3[nH]ccc23)n1 (stereo not drawn) + Cc1cncc(-c2nc(NCCc3c[nH]c4ccccc34)c3ncn(C(C)C)c3n2)c1	class 0

// query What outcome does the record of this test show for COc1cc(Nc2ncc3c(n2)-c2ccc(Cl)cc2C(c2c(F)cccc2OC)=NC3)ccc1C(=O)O + Cc1ccccc1N=Nc1ccc(NC(=O)c2ccnn2C)c(C)c1 ?
// result class 0

// query What outcome does the record of this test show for CC1(C)CCC(CN2CCN(c3ccc(C(=O)NS(=O)(=O)c4ccc(NCC5CCOCC5)c([N+](=O)[O-])c4)c(Oc4cnc5[nH]ccc5c4)c3)CC2)=C(c2ccc(Cl)cc2)C1 + CC(CO)NC(=O)c1cc(-c2ccc(Cl)cc2)nn(-c2cnn(C)c2)c1=O ?
// result class 0

// query What outcome does the record of this test show for O=C(c1cc(Cc2n[nH]c(=O)c3ccccc23)ccc1F)N1CCN(C(=O)C2CC2)CC1 + Cc1ccccc1N=Nc1ccc(NC(=O)c2ccnn2C)c(C)c1 ?
// result class 0

// query What outcome does the record of this test show for COc1ccc([C@@H](O)c2cc(-c3ncnc4cc(N5CCOCC5)ccc34)c(F)cc2Cl)nn1 + Cc1ccccc1N=Nc1ccc(NC(=O)c2ccnn2C)c(C)c1 ?
// result class 0

// query What outcome does the record of this test show for COc1cc(C2c3cc4c(cc3C(OC3OC5COC(C)OC5C(O)C3O)C3COC(=O)C23)OCO4)cc(OC)c1O (stereo not drawn) + CC(CO)NC(=O)c1cc(-c2ccc(Cl)cc2)nn(-c2cnn(C)c2)c1=O ?
// result class 0

// query What outcome does the record of this test show for CC1COCCN1c1cc(C2(S(C)(=N)=O)CC2)nc(-c2ccnc3[nH]ccc23)n1 (stereo not drawn) + Cc1ccccc1N=Nc1ccc(NC(=O)c2ccnn2C)c(C)c1 ?
// result class 0

// query What outcome does the record of this test show for COc1cc(Nc2ncc3c(n2)-c2ccc(Cl)cc2C(c2c(F)cccc2OC)=NC3)ccc1C(=O)O + CC(CO)NC(=O)c1cc(-c2ccc(Cl)cc2)nn(-c2cnn(C)c2)c1=O ?
// result class 0

* * *

Overview of reported IC50 across a group of compounds:
Tested on: Hs578T complex spheroid growth, percent test/control
experiment: Anticancer human tumor Hs578T cell line growth inhibition [AhR];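 note: luminescent viability signal as a proxy for spheroid growth; spheroids exposed to agents for one week after three days of growth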
test-context: curve of compound

compound	tested-on	IC50
CC[C@@]1(O)C(=O)OCc2c1cc1n(c2=O)Cc2cc3c(CN(C)C)c(O)ccc3nc2-1	Hs578T complex spheroid growth, percent test/control	> 0.1 µM
Nc1ncn(C2CC(O)C(CO)O2)c(=O)n1 (centres undefined)	Hs578T complex spheroid growth, percent test/control	> 1 µM

// query Kindly indicate its recorded IC50. Item: CCN(c1cc(-c2ccc(CN3CCOCC3)cc2)cc(C(=O)NCc2c(C)cc(C)[nH]c2=O)c1C)C1CCOCC1
// result > 3 µM

// query Kindly indicate its recorded IC50. Item: CC1(C)CCC(CN2CCN(c3ccc(C(=O)NS(=O)(=O)c4ccc(NCC5CCOCC5)c([N+](=O)[O-])c4)c(Oc4cnc5[nH]ccc5c4)c3)CC2)=C(c2ccc(Cl)cc2)C1
// result > 10 µM

// query Kindly indicate its recorded IC50. Item: O=C(c1cc(Cc2n[nH]c(=O)c3ccccc23)ccc1F)N1CCN(C(=O)C2CC2)CC1
// result > 10 µM

// query Kindly indicate its recorded IC50. Item: Nc1ncn(C2CC(O)C(CO)S2)c(=O)n1 (centres undefined)
// result > 0.3 µM

// query Kindly indicate its recorded IC50. Item: CC(C)c1c(-c2ccccc2)nc2c(C#N)c[nH]n2c1=O
// result > 10 µM

// query Kindly indicate its recorded IC50. Item: COc1cc(C2c3cc4c(cc3C(OC3OC5COC(C)OC5C(O)C3O)C3COC(=O)C23)OCO4)cc(OC)c1O (centres undefined)
// result > 10 µM

// query Kindly indicate its recorded IC50. Item: Cn1ncnc1C1c2n[nH]c(=O)c3cc(F)cc(c23)NC1c1ccc(F)cc1 (centres undefined)
// result > 0.1 µM

From: PubChem BioAssay AID1919010
